// data source = the kinase profiling compilation of Christmann-Franck et al. (2016)

- target.or.system: CHUK (human) (UniProt O15111)
- Sequence (O15111 whole entry, looked up): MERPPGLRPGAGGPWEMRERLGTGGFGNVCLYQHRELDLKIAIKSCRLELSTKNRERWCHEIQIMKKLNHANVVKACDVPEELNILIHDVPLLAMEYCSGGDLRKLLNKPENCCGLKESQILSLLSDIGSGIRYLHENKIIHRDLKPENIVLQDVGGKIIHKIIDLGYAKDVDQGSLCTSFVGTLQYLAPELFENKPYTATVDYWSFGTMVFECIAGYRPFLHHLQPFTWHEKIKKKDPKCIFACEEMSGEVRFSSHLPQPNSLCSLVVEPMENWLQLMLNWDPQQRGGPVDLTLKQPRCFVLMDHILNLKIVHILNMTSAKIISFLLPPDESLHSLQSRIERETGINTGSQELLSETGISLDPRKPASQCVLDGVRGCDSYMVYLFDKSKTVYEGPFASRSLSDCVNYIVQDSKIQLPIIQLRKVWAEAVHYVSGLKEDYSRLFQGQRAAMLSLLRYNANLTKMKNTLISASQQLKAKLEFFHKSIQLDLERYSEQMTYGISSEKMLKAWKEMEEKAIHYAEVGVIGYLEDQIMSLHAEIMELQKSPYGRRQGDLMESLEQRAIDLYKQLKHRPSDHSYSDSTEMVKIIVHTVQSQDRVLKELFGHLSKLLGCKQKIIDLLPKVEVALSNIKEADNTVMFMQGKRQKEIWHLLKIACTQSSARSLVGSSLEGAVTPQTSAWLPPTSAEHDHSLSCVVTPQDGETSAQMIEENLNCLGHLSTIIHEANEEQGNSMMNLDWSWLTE
- test: KINOMEscan competition binding
- setup.conditions: compound 10.0 µM
readout.kind: kinase still bound, per cent of control (%)
State just the number; it will be interpreted in %.

Guide cases for kinase still bound, per cent of control, answers given:
INSERT INTO measurements (query_smiles, measurement) VALUES
  ('CCN1CCN(Cc2ccc(NC(=O)c3ccc(C)c(Oc4ccnc5[nH]ccc45)c3)cc2C(F)(F)F)CC1', 0.95),
  ('CCOc1cc(N2CCC(N3CCCCC3)CC2)ccc1Nc1nc(Nc2ccccc2S(=O)(=O)C(C)C)c2cn[nH]c2n1', 100),
  ('COc1cc(N2CCC(N3CCN(C)CC3)CC2)ccc1Nc1ncc(Cl)c(Nc2ccccc2S(=O)(=O)C(C)C)n1', 40);

Could you now consider this next compound?
For reference, reported kinase still bound, per cent of control for `CCN1CCN(Cc2ccc(NC(=O)c3ccc(C)c(/C=C/c4cnc(Nc5cc(N6CCNCC6)nc(C)n5)cn4)c3)cc2C(F)(F)F)CC1` stands at 0

###

- Test system: EGFR (human), P00533 [746-750 del]
- Sequence (P00533 whole entry, looked up, stated change not applied): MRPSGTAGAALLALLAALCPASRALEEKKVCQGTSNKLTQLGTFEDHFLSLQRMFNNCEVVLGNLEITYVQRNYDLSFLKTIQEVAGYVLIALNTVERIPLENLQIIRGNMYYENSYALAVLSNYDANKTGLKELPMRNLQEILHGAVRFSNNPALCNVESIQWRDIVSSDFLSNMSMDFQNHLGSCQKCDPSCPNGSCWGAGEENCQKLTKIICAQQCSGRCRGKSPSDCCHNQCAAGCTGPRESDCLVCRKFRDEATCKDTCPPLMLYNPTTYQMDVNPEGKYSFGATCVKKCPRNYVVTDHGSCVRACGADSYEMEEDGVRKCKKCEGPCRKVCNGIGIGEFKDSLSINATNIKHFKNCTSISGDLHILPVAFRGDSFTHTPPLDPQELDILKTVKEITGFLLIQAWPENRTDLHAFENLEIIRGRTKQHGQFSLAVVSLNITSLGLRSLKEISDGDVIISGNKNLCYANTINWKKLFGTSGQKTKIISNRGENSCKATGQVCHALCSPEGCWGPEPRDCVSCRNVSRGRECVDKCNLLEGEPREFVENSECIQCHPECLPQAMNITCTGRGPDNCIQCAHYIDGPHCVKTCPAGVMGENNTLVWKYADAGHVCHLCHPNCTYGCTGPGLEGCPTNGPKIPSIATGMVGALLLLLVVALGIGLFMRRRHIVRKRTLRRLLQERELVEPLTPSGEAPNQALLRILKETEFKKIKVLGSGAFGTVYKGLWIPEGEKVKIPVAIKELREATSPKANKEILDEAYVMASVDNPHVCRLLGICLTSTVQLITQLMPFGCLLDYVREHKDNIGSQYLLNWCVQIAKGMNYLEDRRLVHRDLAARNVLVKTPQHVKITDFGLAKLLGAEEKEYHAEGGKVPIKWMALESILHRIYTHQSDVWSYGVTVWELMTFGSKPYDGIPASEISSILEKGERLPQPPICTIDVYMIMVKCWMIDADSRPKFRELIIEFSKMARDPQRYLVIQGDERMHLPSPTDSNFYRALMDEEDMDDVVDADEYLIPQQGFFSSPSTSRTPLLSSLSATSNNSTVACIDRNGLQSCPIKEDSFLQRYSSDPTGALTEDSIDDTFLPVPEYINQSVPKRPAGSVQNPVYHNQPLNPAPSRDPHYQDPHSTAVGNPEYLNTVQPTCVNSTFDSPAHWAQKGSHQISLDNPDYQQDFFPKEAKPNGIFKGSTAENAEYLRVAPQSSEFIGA
- test: KINOMEscan competition binding
- setup.conditions: compound 10.0 µM
readout.kind: kinase still bound, per cent of control (%)
Numbers only; they are read as %.

Example entries and their recorded answers appear below.
INSERT INTO results (query_smiles, measurement) VALUES
  ('CCOc1cc(N2CCC(N3CCCCC3)CC2)ccc1Nc1nc(Nc2ccccc2S(=O)(=O)C(C)C)c2cn[nH]c2n1', 20),
  ('CCN1CCN(Cc2ccc(NC(=O)c3ccc(C)c(/C=C/c4cnc(Nc5cc(N6CCNCC6)nc(C)n5)cn4)c3)cc2C(F)(F)F)CC1', 17),
  ('CCN1CCN(Cc2ccc(NC(=O)c3ccc(C)c(Oc4ccnc5[nH]ccc45)c3)cc2C(F)(F)F)CC1', 8.4);

Now for a further molecule.
Item `COc1cc(N2CCC(N3CCN(C)CC3)CC2)ccc1Nc1ncc(Cl)c(Nc2ccccc2S(=O)(=O)C(C)C)n1` ; assay system EGFR (human), P00533 [746-750 del]; kinase still bound, per cent of control reported as 0

###

The compounds listed here are annotated with their kinase still bound, per cent of control.
- target.or.system: KIT (human)
- test: KINOMEscan competition binding
- setup.conditions: compound 10.0 µM
Write the answer as a number in %, unit excluded.

Please review the entries below; each comes with its answer.
INSERT INTO measurements (query_smiles, target_or_system, unit_tag, measurement) VALUES
  ('CCN1CCN(Cc2ccc(NC(=O)c3ccc(C)c(/C=C/c4cnc(Nc5cc(N6CCNCC6)nc(C)n5)cn4)c3)cc2C(F)(F)F)CC1', 'KIT (human)', '%', 0.15),
  ('CCN1CCN(Cc2ccc(NC(=O)c3ccc(C)c(Oc4ccnc5[nH]ccc45)c3)cc2C(F)(F)F)CC1', 'KIT (human)', '%', 0),
  ('COc1cc(N2CCC(N3CCN(C)CC3)CC2)ccc1Nc1ncc(Cl)c(Nc2ccccc2S(=O)(=O)C(C)C)n1', 'KIT (human)', '%', 0.1);

Turning now to a further record.
Form field kinase still bound, per cent of control, entry `CCOc1cc(N2CCC(N3CCCCC3)CC2)ccc1Nc1nc(Nc2ccccc2S(=O)(=O)C(C)C)c2cn[nH]c2n1` : 87
